Where these numbers come from: PubChem BioAssay (NCI)

System: HT29 colon
Experiment: NCI tumour cell line growth inhibition, 48 h
measurement label: TGI

[
  {
    "compound": "CC(=O)[CH-]C(=O)c1ccccc1.CC(=O)[CH-]C(=O)c1ccccc1.[Nd+3].[OH-].[OH3+]",
    "TGI": "> 100 µM"
  },
  {
    "compound": "[N-]=N[N+]#I1OC(C(F)(F)F)(C(F)(F)F)c2ccccc21",
    "TGI": "35.3 µM"
  },
  {
    "compound": "CN(NC(=O)c1ccco1)C1=NCCCCN1",
    "TGI": "> 100 µM"
  },
  {
    "compound": "Cc1c(Cl)ccc2c1NC(=O)C2(O)CC(=O)c1ccc(Cl)cc1Cl (stereo not given)",
    "TGI": "> 50 µM"
  }
]

Briefly, TGI measured for "CCOC(=O)c1cc2cc(Cc3ccc4[nH]c(C(=O)OCC)cc4c3)ccc2[nH]1" : > 100 µM
